Assign kon to each entry below.
- Tested Target: T1, human PRLR (Biacore antigen) (human, UniProt P16471 25-234, limits assumed)
- T1 construct: The construct injected over captured antibody is not described (a soluble form is likely); also called huPRLR
- T1 sequence: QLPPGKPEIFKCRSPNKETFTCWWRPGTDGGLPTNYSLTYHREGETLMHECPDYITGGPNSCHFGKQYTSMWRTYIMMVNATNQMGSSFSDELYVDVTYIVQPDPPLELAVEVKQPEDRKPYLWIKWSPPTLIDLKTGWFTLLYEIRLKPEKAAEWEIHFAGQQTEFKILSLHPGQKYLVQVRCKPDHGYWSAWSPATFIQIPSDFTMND
- Protocol Description: SPR Biacore
Give bare numbers, in M⁻¹ s⁻¹.

Ab12 (antibody, V domains shown, murine monoclonal, isotype G2a; reported as PRLR agonist; also called murine Ab12) VH: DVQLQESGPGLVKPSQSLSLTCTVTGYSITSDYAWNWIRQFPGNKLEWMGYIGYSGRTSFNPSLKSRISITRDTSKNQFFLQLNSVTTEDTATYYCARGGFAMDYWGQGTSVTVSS VL: QIVLTQSPGIMSASPGEKVTMTCSASSSVTYMYWYQQKPRSSPKPWIYLTSNLASGVPARFSGSGSGTSYSLTISSMEAEDGATYYCQQWSSTPPLTFGGGTKLELN ... 282000
Ab49 (antibody, human IgG1, kappa, V domains shown, humanized from Ab8; G1; also called Ab3 HC.1a and Ab3 LC.1b) VH: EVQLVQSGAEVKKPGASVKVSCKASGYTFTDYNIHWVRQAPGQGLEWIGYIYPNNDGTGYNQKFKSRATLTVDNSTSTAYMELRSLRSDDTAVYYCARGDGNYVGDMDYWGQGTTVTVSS VL: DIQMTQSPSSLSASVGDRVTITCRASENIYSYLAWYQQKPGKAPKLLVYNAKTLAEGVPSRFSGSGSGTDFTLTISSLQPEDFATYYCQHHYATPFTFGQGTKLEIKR ... 558000
Ab7 (antibody, V domains shown, murine monoclonal, isotype G1; also called murine Ab7) VH: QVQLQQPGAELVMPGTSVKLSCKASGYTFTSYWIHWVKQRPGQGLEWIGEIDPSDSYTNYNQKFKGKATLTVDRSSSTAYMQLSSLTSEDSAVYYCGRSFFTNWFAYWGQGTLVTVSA VL: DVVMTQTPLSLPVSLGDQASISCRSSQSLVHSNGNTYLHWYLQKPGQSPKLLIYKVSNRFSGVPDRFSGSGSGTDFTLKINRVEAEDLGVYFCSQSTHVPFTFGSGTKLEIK ... 280000
chAb7 (antibody, human IgG1, kappa, V domains shown, chimeric, murine variable and human G1/kappa constant regions) VH: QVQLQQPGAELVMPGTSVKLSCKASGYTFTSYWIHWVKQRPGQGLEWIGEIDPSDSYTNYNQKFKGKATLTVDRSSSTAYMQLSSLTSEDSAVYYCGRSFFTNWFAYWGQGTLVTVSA VL: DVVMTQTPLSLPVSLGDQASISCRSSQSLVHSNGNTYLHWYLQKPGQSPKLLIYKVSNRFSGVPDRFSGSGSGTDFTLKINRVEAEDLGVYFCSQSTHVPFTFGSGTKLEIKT ... 248000

Now look at this one.
[Q] Entry under review: Ab27 (antibody, human IgG1, kappa, V domains shown, humanized from Ab5; G1; also called Ab2 HC.1 and Ab2 LC.1a) VH: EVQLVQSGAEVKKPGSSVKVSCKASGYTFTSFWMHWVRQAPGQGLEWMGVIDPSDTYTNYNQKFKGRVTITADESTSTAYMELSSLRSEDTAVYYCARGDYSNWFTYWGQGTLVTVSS VL: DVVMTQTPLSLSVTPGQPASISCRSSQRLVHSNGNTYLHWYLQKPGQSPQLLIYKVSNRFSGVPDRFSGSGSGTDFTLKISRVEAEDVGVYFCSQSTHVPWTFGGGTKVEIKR . Reported kon?
[A] 356000
